target: NEMO (Homo sapiens); construct: bacterially expressed version of full length NEMO fused at its NH2-terminus to glutathione S-transferase; made in house; host or cells: bacteria (pGEX-4T1); experiment: GST pull-down of IKKβ NBD mutants by GST-NEMO; type: binding; conditions: GST pulldown assay; NBD mutations in IKKβ
measured.attribute: Binds to NEMO

Field: example entries. Status: answers known.
[
  {
    "substance": "LDYSWL (Description of Artificial Sequence: Synthetic NBD peptide)",
    "Binds to NEMO": "yes"
  },
  {
    "substance": "LDWAWL",
    "Binds to NEMO": "yes"
  },
  {
    "substance": "LAWSWL (Description of Artificial Sequence: Synthetic NBD peptide)",
    "Binds to NEMO": "no"
  },
  {
    "substance": "ADWSWL",
    "Binds to NEMO": "yes"
  },
  {
    "substance": "LDWSWL (Description of Artificial Sequence: Synthetic NBD peptide)",
    "Binds to NEMO": "yes"
  }
]

Proceed to the following item.
Given item LNWSWL (Description of Artificial Sequence: Synthetic NBD peptide) , the value recorded as its Binds to NEMO is yes

----------
biological target: NEMO (Homo sapiens, UniProt Q9Y6K9); construct: bacterially expressed version of full length NEMO fused at its NH2-terminus to glutathione S-transferase; made in house; host or cells: bacteria (pGEX-4T1); test: GST pull-down of IKKβ NBD mutants by GST-NEMO; format: binding; details: GST pulldown assay; NBD mutations in IKKβ
Sequence (Q9Y6K9 whole entry, the tested form may be a part): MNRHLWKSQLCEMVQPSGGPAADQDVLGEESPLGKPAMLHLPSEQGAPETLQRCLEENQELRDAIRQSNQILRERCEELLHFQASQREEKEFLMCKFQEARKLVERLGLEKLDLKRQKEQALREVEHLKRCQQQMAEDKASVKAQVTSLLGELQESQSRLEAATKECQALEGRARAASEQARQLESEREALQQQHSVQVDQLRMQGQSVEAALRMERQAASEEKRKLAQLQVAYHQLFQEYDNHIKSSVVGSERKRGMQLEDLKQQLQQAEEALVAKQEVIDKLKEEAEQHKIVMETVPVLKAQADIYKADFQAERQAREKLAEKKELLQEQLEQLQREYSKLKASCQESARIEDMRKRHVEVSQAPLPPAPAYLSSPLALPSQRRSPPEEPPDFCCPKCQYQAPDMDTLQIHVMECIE
measured.attribute: Binds to NEMO

Field: example entries. Status: answers known.
[
  {
    "substance": "LEWSWL (Description of Artificial Sequence: Synthetic NBD peptide)",
    "measured.attribute": "Binds to NEMO",
    "result": "yes"
  },
  {
    "substance": "LDWEWL (Description of Artificial Sequence: Synthetic NBD peptide)",
    "measured.attribute": "Binds to NEMO",
    "result": "yes"
  },
  {
    "substance": "LDWSWA (Description of Artificial Sequence: Synthetic NBD peptide)",
    "measured.attribute": "Binds to NEMO",
    "result": "yes"
  },
  {
    "substance": "LDASAL (Description of Artificial Sequence: Synthetic NBD peptide)",
    "measured.attribute": "Binds to NEMO",
    "result": "no"
  },
  {
    "substance": "LDASWL (Description of Artificial Sequence: Synthetic NBD peptide)",
    "measured.attribute": "Binds to NEMO",
    "result": "no"
  },
  {
    "substance": "LDWSYL (Description of Artificial Sequence: Synthetic NBD peptide)",
    "measured.attribute": "Binds to NEMO",
    "result": "no"
  },
  {
    "substance": "LDWSFL (Description of Artificial Sequence: Synthetic NBD peptide)",
    "measured.attribute": "Binds to NEMO",
    "result": "yes"
  },
  {
    "substance": "LDFSWL",
    "measured.attribute": "Binds to NEMO",
    "result": "yes"
  }
]

Proceed to the following item.
Given item LDWSAL (Description of Artificial Sequence: Synthetic NBD peptide) , the value recorded as its Binds to NEMO is no
